- TARGET OF ASSAY: UniProt P16671
- Sequence (P16671 whole entry): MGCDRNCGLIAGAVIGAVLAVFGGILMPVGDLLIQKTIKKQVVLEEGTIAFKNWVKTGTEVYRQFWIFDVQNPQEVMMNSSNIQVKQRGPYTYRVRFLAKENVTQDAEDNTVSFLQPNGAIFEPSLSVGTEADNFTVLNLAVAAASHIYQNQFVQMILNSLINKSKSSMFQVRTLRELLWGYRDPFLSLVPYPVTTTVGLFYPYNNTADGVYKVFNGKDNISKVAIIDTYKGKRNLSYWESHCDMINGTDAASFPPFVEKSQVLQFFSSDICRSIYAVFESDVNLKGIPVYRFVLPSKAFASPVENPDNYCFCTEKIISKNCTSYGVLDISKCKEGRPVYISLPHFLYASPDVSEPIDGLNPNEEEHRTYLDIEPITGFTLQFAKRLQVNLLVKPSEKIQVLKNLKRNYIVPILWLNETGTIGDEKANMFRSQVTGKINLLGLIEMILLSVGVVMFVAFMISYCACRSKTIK
ATTRIBUTE MEASURED: IC50 (µM)
Provide the reading as a plain figure in µM.

Q. Send back UniProt P16671 IC50 of "COc1ccc2cc[n+](CCc3ccccc3C)cc2c1OC" only.
A. 4.36

###

- TARGET OF ASSAY: UniProtKB P16671
- ASSAY PROTOCOL: Antagonist activity at human CD36-oxLDL binding at 10 ug/mL after 2 hrs by ELISA
# reported inhibition; entries follow

Past entries and their recorded results:
COc1cc2c[n+](CCc3cccc(F)c3)c(O)cc2cc1O | < 10%
COc1ccc2cc[n+](CCc3ccccc3)cc2c1OC | < 10%
COc1cc2c[n+](CCc3ccc(Cl)cc3)ccc2cc1O | < 10%
COc1cc2cc[n+](CCc3ccc(Cl)cc3)cc2cc1OC | < 10%
COc1ccc(CC[n+]2ccc3ccc(OC)c(O)c3c2)cc1 | < 10%

Q. Answer with the recorded inhibition of "COc1cc2cc[n+](CCc3cccc(C(F)(F)F)c3)cc2cc1OC" only.
A. < 10%

Q. Answer with the recorded inhibition of "COc1cc2c[n+](CCc3ccccc3C)c(O)cc2cc1O" only.
A. < 10%

Q. Answer with the recorded inhibition of "Oc1ccc2cc[n+](CCc3ccccc3)cc2c1" only.
A. < 10%
